target: CTSK (Homo sapiens, UniProt P43235); assay: Recombinant cathepsin inhibition, residual activity labeled by pan cathepsin probe GB123, in-gel fluorescence; type: biochemical; conditions: CTSK 0.5 µM, 1 h preincubation, then GB123 1 µM 1 h, pH 5.5
Sequence (P43235 115-329): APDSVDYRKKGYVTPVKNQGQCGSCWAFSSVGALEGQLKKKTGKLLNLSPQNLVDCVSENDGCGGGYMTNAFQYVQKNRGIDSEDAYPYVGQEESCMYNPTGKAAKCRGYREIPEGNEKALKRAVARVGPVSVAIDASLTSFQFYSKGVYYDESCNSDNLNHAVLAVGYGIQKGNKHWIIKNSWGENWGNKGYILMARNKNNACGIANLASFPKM
PROPERTY NAME: IC50 (nM)
Give the quantity in nM, number only.

Form field IC50, entry C#CCNC(=O)[C@H](CC(C)C)N[C@@H](c1ccc(-c2ccc(S(=O)(=O)CCNC(=O)OC(C)(C)C)cc2)cc1)C(F)(F)F : 561

src = paper PMC11481179
